Provide the reported Ki of each item.
# study_system: GCN2 kinase (Homo sapiens)
# Sequence (Q9P2K8 whole entry): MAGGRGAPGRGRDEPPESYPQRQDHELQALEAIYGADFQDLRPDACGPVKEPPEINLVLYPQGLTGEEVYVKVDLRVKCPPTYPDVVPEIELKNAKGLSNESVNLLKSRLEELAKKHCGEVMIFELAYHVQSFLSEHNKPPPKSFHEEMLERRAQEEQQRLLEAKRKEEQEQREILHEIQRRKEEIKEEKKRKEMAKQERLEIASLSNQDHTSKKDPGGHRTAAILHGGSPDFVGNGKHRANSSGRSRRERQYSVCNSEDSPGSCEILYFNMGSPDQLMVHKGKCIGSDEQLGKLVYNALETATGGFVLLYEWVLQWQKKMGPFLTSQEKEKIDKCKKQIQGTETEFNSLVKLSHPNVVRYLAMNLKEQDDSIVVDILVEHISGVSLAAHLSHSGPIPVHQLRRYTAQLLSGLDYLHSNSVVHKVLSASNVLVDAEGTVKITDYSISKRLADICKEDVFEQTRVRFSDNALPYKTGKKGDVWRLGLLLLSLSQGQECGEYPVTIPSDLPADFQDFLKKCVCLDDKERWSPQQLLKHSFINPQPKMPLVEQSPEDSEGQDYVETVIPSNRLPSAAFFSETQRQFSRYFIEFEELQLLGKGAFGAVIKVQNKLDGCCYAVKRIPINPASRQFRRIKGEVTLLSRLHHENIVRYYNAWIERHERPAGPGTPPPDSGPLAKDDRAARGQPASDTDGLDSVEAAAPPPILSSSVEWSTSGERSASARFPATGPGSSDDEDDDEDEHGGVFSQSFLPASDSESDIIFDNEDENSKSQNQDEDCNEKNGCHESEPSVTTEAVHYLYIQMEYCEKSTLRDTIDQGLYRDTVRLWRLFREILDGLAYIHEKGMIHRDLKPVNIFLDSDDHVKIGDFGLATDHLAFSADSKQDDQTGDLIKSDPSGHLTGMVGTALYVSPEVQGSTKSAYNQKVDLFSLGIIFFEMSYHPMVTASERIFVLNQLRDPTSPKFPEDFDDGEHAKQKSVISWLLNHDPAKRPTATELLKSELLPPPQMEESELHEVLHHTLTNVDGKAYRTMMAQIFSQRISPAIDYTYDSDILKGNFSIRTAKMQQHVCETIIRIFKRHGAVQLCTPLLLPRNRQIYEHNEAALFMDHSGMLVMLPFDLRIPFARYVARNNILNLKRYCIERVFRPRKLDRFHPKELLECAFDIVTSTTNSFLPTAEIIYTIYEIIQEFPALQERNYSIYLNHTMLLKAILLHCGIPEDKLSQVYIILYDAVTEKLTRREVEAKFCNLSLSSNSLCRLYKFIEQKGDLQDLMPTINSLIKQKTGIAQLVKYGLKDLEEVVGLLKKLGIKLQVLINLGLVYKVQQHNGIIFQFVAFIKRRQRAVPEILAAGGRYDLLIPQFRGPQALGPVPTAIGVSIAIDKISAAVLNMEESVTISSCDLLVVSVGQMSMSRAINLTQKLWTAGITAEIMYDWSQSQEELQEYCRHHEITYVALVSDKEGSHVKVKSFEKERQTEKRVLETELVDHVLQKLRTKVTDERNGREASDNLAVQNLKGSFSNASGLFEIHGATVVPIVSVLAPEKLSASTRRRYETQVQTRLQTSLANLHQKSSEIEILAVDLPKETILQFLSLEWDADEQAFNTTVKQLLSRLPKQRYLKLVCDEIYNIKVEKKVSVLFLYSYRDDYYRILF
# protocol_notes: GCN2 enzyme inhibition assay (Transcreener ADP2 fluorescence polarization)
# Type: biochemical
# study_conditions: compounds of Formula II; 280 μM ATP, 4 nM GCN2 kinase

QUERY: Determine its reported Ki: CS(=O)(=O)NC[C@@H]1CN(c2cc(-c3cnc4ccc(C(F)F)nn34)ncn2)CCO1
RESULT: < 0.01 µM

QUERY: Answer with the recorded Ki for the molecule listed here: CC1C(NS(C)(=O)=O)CCCN1c1cc(-c2cnc3ccc(C(F)F)nn23)ncn1 (stereo not drawn) [II-601]
RESULT: < 0.01 µM

QUERY: Item CNc1cc(-c2cnc3ccc(C(F)F)nn23)cc(N2CCO[C@H](CNS(C)(=O)=O)C2)n1 : provide Ki
RESULT: < 0.01 µM

QUERY: Provide measured Ki value, entry: CC1(O)CC(CNS(C)(=O)=O)CN(c2cc(-c3cnc4ccc(C(F)F)nn34)ncn2)C1 (single isomer, unassigned) [II-6]
RESULT: 0.01 to 1 µM

QUERY: Indicate its recorded Ki; the molecule in question is CC(NS(C)(=O)=O)C1CCCN(c2cc(-c3cnc4ccc(C(F)F)nn34)ccn2)C1 (stereo not drawn) [II-133]
RESULT: < 0.01 µM

QUERY: // fetch Ki given entry Cc1noc([C@@H]2CN(c3cc(-c4cnc5ccc(C(F)(F)F)nn45)ccn3)C[C@H](C)O2)n1 [II-745]
RESULT: 0.01 to 1 µM

QUERY: Give the value of Ki reported for the following: CC(=O)N1CCN(c2cc(-c3cnc4ccc(C(F)F)nn34)ccn2)CC1
RESULT: 0.01 to 1 µM

QUERY: # return recorded Ki for input CS(=O)(=O)NCC1CN(c2cc(-c3cnc4ccc(C(F)F)nn34)ccn2)CCO1 (stereo not drawn)
RESULT: < 0.01 µM

QUERY: Find the measured Ki of CS(=O)(=O)NCC1COCCN(c2cc(-c3cnc4ccc(C(F)(F)F)nn34)ccn2)C1 (stereo not drawn) and report it.
RESULT: 0.01 to 1 µM

QUERY: For the molecule CS(=O)(=O)N[C@H]1CCCN(c2cc(-c3cnc4ccc(C(F)F)nn34)ncn2)C1 (single isomer, unassigned) , give its reported Ki.
RESULT: 0.01 to 1 µM

QUERY: // fetch Ki given entry CC1CCC(CNS(C)(=O)=O)CN1c1cc(-c2cnc3ccc(C(F)F)nn23)ncn1 (stereo not drawn) [II-246]
RESULT: 0.01 to 1 µM

QUERY: Identify measured Ki associated with Clc1ccc2ncc(-c3ccnc(N4CCNCC4)c3)n2n1
RESULT: > 1 µM

QUERY: Output measured Ki for this item: CC1CN(c2cc(-c3cnc4ccc(C(F)F)nn34)ncn2)CC(CO)C1(F)F (stereo not drawn) [II-623]
RESULT: < 0.01 µM

QUERY: Note down Ki recorded for C[C@H]1CN(c2cc(-c3cnc4ccc(C(F)F)nn34)ncn2)C[C@@H](CNS(C)(=O)=O)C1(F)F
RESULT: < 0.01 µM

QUERY: Report Ki, nothing else, for this molecule: CC(=O)N1CCN(c2cc(-c3cnc4ccc(C(=O)O)nn34)ccn2)CC1
RESULT: > 1 µM

QUERY: Specify measured Ki for FC(F)c1ccc2ncc(-c3ccnc(N4CCCC(c5c[nH]cn5)C4)c3)n2n1 (stereo not drawn) .
RESULT: 0.01 to 1 µM

QUERY: Determine its reported Ki: FC(F)c1ccc2ncc(-c3ccnc(N4CCC5(CCNCC5)CC4)c3)n2n1
RESULT: 0.01 to 1 µM

QUERY: Fill in reported Ki for this entry: CC1C(NS(C)(=O)=O)CCCN1c1cc(-c2cnc3ccc(C(F)F)nn23)ncn1 (stereo not drawn) [II-600]
RESULT: > 1 µM

QUERY: Specify reported Ki for the molecule shown: CS(=O)(=O)NC1CN(c2cc(-c3cnc4ccc(C(F)F)nn34)ncn2)CCC1(F)F (stereo not drawn) [II-589]
RESULT: 0.01 to 1 µM

QUERY: Report Ki, nothing else, for this molecule: CC1CN(c2cc(-c3cnc4ccc(C(F)F)nn34)ncn2)CC(CNS(C)(=O)=O)=C1F (stereo not drawn)
RESULT: < 0.01 µM

QUERY: Give Ki for CS(=O)(=O)NCC1(O)CCN(c2cc(-c3cnc4ccc(C(F)F)nn34)ncn2)C1 (stereo not drawn)
RESULT: 0.01 to 1 µM

QUERY: Consider the molecule CS(C)(=O)=NCc1cccc(-c2cc(-c3cnc4ccc(C(F)F)nn34)ncn2)c1 and give its recorded Ki.
RESULT: 0.01 to 1 µM

QUERY: Query Ki for CS(=N)(=O)CC1CCCN(c2cc(-c3cnc4ccc(C(F)F)nn34)ncn2)C1 (single isomer, unassigned) [II-638]
RESULT: 0.01 to 1 µM

QUERY: Answer with reported Ki of CC1CC(CNS(C)(=O)=O)C(C)N(c2cc(-c3cnc4ccc(C(F)F)nn34)ncn2)C1 (single isomer, unassigned) [II-546]
RESULT: < 0.01 µM

QUERY: Give reported Ki value for CC(NS(C)(=O)=O)C1CCCN(c2cc(-c3cnc4ccc(C(F)F)nn34)ncn2)C1 (stereo not drawn) [II-619]
RESULT: 0.01 to 1 µM

QUERY: Could you please provide reported Ki for CS(=O)(=O)N1CCN2CCN(c3cc(-c4cnc5ccc(C(F)F)nn45)ccn3)CC2C1 (stereo not drawn) ? Thanks!
RESULT: 0.01 to 1 µM

QUERY: # return recorded Ki for entry CC1CN(c2cc(-c3cnc4ccc(C(F)F)nn34)ccn2)CC(CNS(C)(=O)=O)O1 (stereo not drawn) [II-118]
RESULT: 0.01 to 1 µM

QUERY: Assign Ki to the following record: CC1C(CNS(C)(=O)=O)N(C)CCN1c1cc(-c2cnc3ccc(C(F)F)nn23)ncn1 (single isomer, unassigned) [II-364]
RESULT: < 0.01 µM

QUERY: Specify reported Ki for the molecule shown: CN(CC1CC(O)CN(c2cc(-c3cnc4ccc(C(F)F)nn34)ncn2)C1)S(C)(=O)=O (stereo not drawn)
RESULT: 0.01 to 1 µM

QUERY: Supply Ki value. Item: [O-][S+]1CCN(c2cc(-c3cnc4ccc(C(F)F)nn34)ncn2)CC1
RESULT: > 1 µM

QUERY: Consider the molecule CC1CN(c2cc(-c3cnc4ccc(C(F)F)nn34)ncn2)CC(CNS(C)(=O)=O)O1 (stereo not drawn) [II-33] and give its recorded Ki.
RESULT: < 0.01 µM

QUERY: Assign Ki to the following record: C[C@@H]1CN(c2cc(-c3cnc4ccc(C(F)F)nn34)ncn2)CC(C(N)=O)O1 (stereo partly drawn)
RESULT: 0.01 to 1 µM

QUERY: Answer with reported Ki of Cc1c(CNS(C)(=O)=O)cccc1-c1cc(-c2cnc3ccc(C(F)F)nn23)ncn1
RESULT: 0.01 to 1 µM
